Every entry's value here was drawn from PubChem BioAssay.

- procedure-details: inhibitors of TNFa-induced NFkB p65 translocation, primary screen, imaging, HUVEC, MLSMR starter and 10KST1 sets (AID 438);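 further: compound added about 3h40 before a 20 min TNFalpha stimulation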
- test-context: HUVEC TNFa-induced p65 nuclear translocation; measured here: nuclei count (cytotoxicity indicator), at 2.08 µM
reported-endpoint: cell count

Example entries begin here.
{"compound": "Cc1ccc(S(=O)(=O)Cc2ccc(C(=O)N3CCN(Cc4ccccc4)CC3)o2)cc1", "cell count": 760}
{"compound": "COc1cc(C(=O)OCC(=O)N(C)Cc2ccccc2)cc(OC)c1OC", "cell count": 405}
{"compound": "CCN(CC)c1nc(-c2cccc(OC)c2O)nc2ccccc12", "cell count": 624}

// query Using the record for COc1ccc(-c2nnn(CC(=O)c3ccc4c(c3)OCCO4)n2)cc1OC , report its cell count.
// result 507

// query Using the record for CCOc1ccc(C2C=C(c3ccc(F)cc3)Nc3ncnn32)cc1 (stereo unspecified) , report its cell count.
// result 548

// query Using the record for CC1=CCC(C(C)(C)NC(=O)c2ccccc2)C/C1=N\O (stereo unspecified) , report its cell count.
// result 313
